What MIC was measured for each of the following?
Tested on: L.monocytogenes VTU-206
procedureDetails: In vitro antibacterial activity (MIC), Japan Society of Chemotherapy Standard
Type: cell-based
studyConditions: Listeria monocytogenes, VTU206; inoculated cells 10⁶ cells/ml; medium supplemented with 10% horse blood
Write the figure, then the unit, nothing else.

CC1COc2c(N3CCN(C)CC3)c(F)cc3c(=O)c(C(=O)O)cn1c23 (stereo not shown) [Comp. Ex. 2, reference compound] | 3.13 µg/mL
COc1c(N2CC[C@@](N)(CF)C2)c(F)cc2c(=O)c(C(=O)O)cn(C3CC3)c12 [Example 6] | 0.1 µg/mL
COc1c(N2CC[C@](N)(CF)C2)c(F)cc2c(=O)c(C(=O)O)cn(C3CC3)c12 [Example 5] | 0.1 µg/mL

Let us examine a further case.
Measured MIC of COc1c(N2CCC(N)(CF)C2)c(F)cc2c(=O)c(C(=O)O)cn(C3CC3)c12 (stereo not shown) [Example 1] : 0.1 µg/mL
